# Test system: myeloid leukemia patient primary cells Pat.2
# assayExplanation: area under dose-response curve (viability, 1 nM-10 uM) (fraction (0-1)); higher = more sensitive
# conditionLabel: 72 h
Counter-ions that a name gives are not always drawn.
Recorded area under dose-response curve values for a group of molecules are listed next.

molecule | area under dose-response curve
Nc1ccn([C@@H]2O[C@H](CO)[C@@H](O)C2(F)F)c(=O)n1 | 0.0848
O=C(Oc1cccc(F)c1OC(=O)c1cccc(O)c1)c1cccc(O)c1 | 0.0336
CC(C)c1onc(-c2c(Cl)cccc2Cl)c1COc1ccc(/C=C/c2cccc(C(=O)O)c2)c(Cl)c1 | < 0.0301
O=C(Cc1cccc(OC(F)(F)F)c1)Nc1ccc(CCCCc2nnc(NC(=O)Cc3ccccn3)s2)nn1 | < 0.0301
CCC(CC#N)OC(=O)N[C@@H](C)c1cccc(NC(=O)Nc2ccc(-c3cnco3)c(OC)c2)c1 (stereo in doubt) | < 0.0301
Oc1ncc(F)c(O)n1 | < 0.0301
CC(C)(Cc1ccccc1)NCC(O)c1ccc(O)c(NS(C)(=O)=O)c1 (stereo not drawn) [Zinterol hydrochloride] | < 0.0301
NS(=O)(=O)c1ccc(S(=O)(=O)Nc2cccc3c(Cl)c[nH]c23)cc1 | < 0.0301
